# Measurement Description: Caco-2 membrane permeability, improved method as used in the following Examples (96-well, 20 to 24 h preincubation)
# Assay type: in vitro ADME
# Study Conditions: human, Caco-2, Caco-2 (cm/sec)
Starred links: 1 amine or outer side, 2 acyl side, 3 side chain; linkers in the order of their positions; H or OH if unused. Positions of bridges follow the written chain, without caps; N, C: chain ends. Non-standard residues stand in square brackets, D forms with d. Residues, ends and D or L forms follow the SMILES beside them. *: point of attachment. Tyr(3-F) = N[C@@H](Cc1ccc(O)c(F)c1)C(=O)O; NMehPhe = CN[C@@H](CCc1ccccc1)C(=O)O; NMeF = CN[C@@H](Cc1ccccc1)C(=O)O; NMeGABA = CN(CCCC(=O)[*:2])[*:1]; NMeI = CC[C@H](C)[C@H](NC)C(=O)O; hPhe = N[C@@H](CCc1ccccc1)C(=O)O; NMeL = CN[C@@H](CC(C)C)C(=O)O; NMeV = CN[C@H](C(=O)O)C(C)C; NMeA = CN[C@@H](C)C(=O)O; Piperidide = C1CCN(*)CC1; X2 = Fc1cncc(C*)c1; Sar = CNCC(=O)O; tBu = CC(C)(C)*
Entries and their Papp A→B at 180 min
Could you write the number and then its unit?

Past entries and their recorded results:
CC[C@H](C)[C@H]1C(=O)N[C@@H]([C@@H](C)O)C(=O)N(C)CC(=O)N(C)[C@@H](CC(C)C)C(=O)N[C@H](C(=O)N2CCCCC2)CC(=O)N(C)[C@@H](C(C)C)C(=O)N[C@@H](COCc2cncc(F)c2)C(=O)N(C)[C@@H](CC(C)C)C(=O)N(C)[C@@H](Cc2ccccc2)C(=O)N[C@@H](CC(C)C)C(=O)N(C)[C@@H](Cc2ccccc2)C(=O)N1C [pd181] ([NMeV]S(X2)[NMeL][NMeF]L[NMeF][NMeI]T[Sar][NMeL]D-Piperidide; lactam N-11) :: 1.1 ×10⁻⁶ cm/s
CC(C)C[C@@H]1NC(=O)[C@H](Cc2ccccc2)N(C)C(=O)C[C@@H](C(=O)N2CCCCC2)NC(=O)[C@H](CC(C)C)N(C)C(=O)CN(C)C(=O)[C@H]([C@@H](C)O)NC(=O)[C@H](Cc2ccccc2)N(C)C(=O)[C@H](Cc2ccccc2)N(C)C(=O)[C@H](CC(C)C)NC(=O)[C@H](Cc2ccccc2)N(C)C(=O)[C@H](CC(C)C)N(C)C1=O [pd227] ([NMeF]L[NMeL][NMeF]L[NMeF][NMeF]T[Sar][NMeL]D-Piperidide; lactam N-11) :: 0.61 ×10⁻⁶ cm/s
CC(C)C[C@H]1C(=O)N(C)[C@@H](CCc2ccccc2)C(=O)N[C@@H](COC(C)(C)C)C(=O)N(C)[C@@H](C)C(=O)N[C@H](C(=O)N2CCCCC2)CC(=O)N(C)[C@@H](C)C(=O)N(C)[C@@H](Cc2ccccc2)C(=O)N[C@@H](CCc2ccccc2)C(=O)N(C)[C@@H](CC(C)C)C(=O)N[C@@H]([C@@H](C)O)C(=O)N(C)CC(=O)N1C [pd184] ([NMeA][NMeF][hPhe][NMeL]T[Sar][NMeL][NMehPhe]S(tBu)[NMeA]D-Piperidide; lactam N-11) :: 1.2 ×10⁻⁶ cm/s

Give the reported Papp A→B at 180 min for this compound. CC(C)C[C@H]1NC(=O)C[C@@H](C(=O)N2CCCCC2)NC(=O)[C@H](C)N(C)C(=O)[C@H](CC(C)C)N(C)C(=O)[C@H](COC(C)(C)C)NC(=O)[C@H](CC(C)C)N(C)C(=O)CN(C)C(=O)[C@H]([C@@H](C)O)NC(=O)[C@H](CC(C)C)N(C)C(=O)[C@H](Cc2ccc(O)c(F)c2)NC(=O)[C@H](Cc2ccccc2)N(C)C1=O [pd118] ([dL][NMeF][Tyr(3-F)][NMeL]T[Sar][NMeL]S(tBu)[NMeL][NMeA]D-Piperidide; lactam N-11)
0.2 ×10⁻⁶ cm/s

Give the reported Papp A→B at 180 min for this compound. CC[C@H](C)[C@@H]1NC(=O)[C@H](CC(C)C)N(C)C(=O)CCCN(C)C(=O)C[C@@H](C(=O)N2CCCCC2)NC(=O)[C@H](CC(C)C)N(C)C(=O)[C@H](C)N(C)C(=O)[C@H]([C@@H](C)O)NC(=O)[C@H](CC(C)C)N(C)C(=O)[C@H](Cc2ccc(O)c(F)c2)NC(=O)[C@H](CC(C)C)N(C)C(=O)[C@H](Cc2ccccc2)N(C)C1=O [pd119] ([NMeGABA][NMeL]I[NMeF][NMeL][Tyr(3-F)][NMeL]T[NMeA][NMeL]D-Piperidide; lactam N-11)
0.16 ×10⁻⁶ cm/s

====

# Measurement Description: Caco-2 membrane permeability, improved method as used in the following Examples (96-well, 20 to 24 h preincubation)
# Format: in vitro ADME
# Study Conditions: human, Caco-2, Caco-2
Positions of bridges follow the written chain, without caps; N, C: chain ends. Non-standard residues stand in square brackets, D forms with d. Residues, ends and D or L forms follow the SMILES beside them. *: point of attachment. Phe(4-CF3) = N[C@@H](Cc1ccc(C(F)(F)F)cc1)C(=O)O; dNMehPhe = CN[C@H](CCc1ccccc1)C(=O)O; Hyp = O=C(O)[C@@H]1C[C@@H](O)CN1; NMeF = CN[C@@H](Cc1ccccc1)C(=O)O; CH2CH(OH)CF3 = OC(C*)C(F)(F)F; NMeL = CN[C@@H](CC(C)C)C(=O)O; NMeV = CN[C@H](C(=O)O)C(C)C; NMeAbu = CC[C@H](NC)C(=O)O; Pip = O=C(O)[C@@H]1CCCCN1; NMeA = CN[C@@H](C)C(=O)O; Piperidide = C1CCN(*)CC1; dNMeA = CN[C@H](C)C(=O)O; Abu = CC[C@H](N)C(=O)O; Sar = CNCC(=O)O; Propyl = CCC*
Readout Name: Papp A→B at 180 min (×10⁻⁶ cm/s)
Entry rule: numbers only, all in ×10⁻⁶ cm/s.

Past entries and their recorded results:
CCO[C@@H]1C[C@H]2C(=O)N(C)[C@@H](CC(C)C)C(=O)N[C@@H]([C@@H](C)O)C(=O)N(C)[C@@H](CC(C)C)C(=O)N(C)[C@@H](C(C)C)C(=O)N[C@@H](Cc3ccc(C(F)(F)F)cc3)C(=O)N3CCCC[C@H]3C(=O)N[C@@H](CC(C)C)C(=O)N[C@H](C(=O)N3CCCCC3)CC(=O)N(C)[C@H](C)C(=O)N(C)[C@@H](CC(C)C)C(=O)N2C1 [pd377] ([dNMeA][NMeL][Hyp](Et)[NMeL]T[NMeL][NMeV][Phe(4-CF3)][Pip]LD-Piperidide; lactam N-11) :: 1.4
CCCOC[C@@H]1NC(=O)[C@H](Cc2ccccc2)N(C)C(=O)[C@H](CC(C)C)N(C)C(=O)[C@H](CC(C)C)NC(=O)[C@H](C)N(C)C(=O)C[C@@H](C(=O)N2CCCCC2)NC(=O)[C@H](CC(C)C)N(C)C(=O)CN(C)C(=O)[C@H]([C@@H](C)O)NC(=O)[C@H](CC(C)C)N(C)C(=O)[C@H](Cc2ccccc2)N(C)C1=O [pd329] ([NMeA]L[NMeL][NMeF]S(Propyl)[NMeF][NMeL]T[Sar][NMeL]D-Piperidide; lactam N-11) :: 4.2
CC[C@@H]1NC(=O)[C@@H](CCc2ccccc2)N(C)C(=O)[C@H](CC(C)C)N(C)C(=O)[C@H](CC(C)C)NC(=O)[C@H](C)N(C)C(=O)C[C@@H](C(=O)N2CCCCC2)NC(=O)[C@H](CC(C)C)N(C)C(=O)CN(C)C(=O)[C@H]([C@@H](C)O)NC(=O)[C@H](CC(C)C)N(C)C(=O)[C@H](Cc2ccccc2)N(C)C1=O [pd322] ([NMeA]L[NMeL][dNMehPhe][Abu][NMeF][NMeL]T[Sar][NMeL]D-Piperidide; lactam N-11) :: 3.1

Give the reported Papp A→B at 180 min for this compound. CC[C@H]1C(=O)N(C)[C@@H](Cc2ccccc2)C(=O)N[C@@H](CC(C)C)C(=O)N(C)[C@@H](Cc2ccccc2)C(=O)N(C)[C@@H](C(C)C)C(=O)N[C@@H](COCC(O)C(F)(F)F)C(=O)N(C)CC(=O)N(C)[C@@H](CC(C)C)C(=O)N[C@H](C(=O)N2CCCCC2)CC(=O)N(C)[C@@H](C)C(=O)N[C@@H](CC(C)C)C(=O)N1C (stereo partly drawn) [pd503] ([NMeA]L[NMeAbu][NMeF]L[NMeF][NMeV]S(CH2CH(OH)CF3)[Sar][NMeL]D-Piperidide; lactam N-11)
2

====

Entries and their Papp A→B at 180 min
# Measurement Description: Caco-2 membrane permeability, improved method as used in the following Examples (96-well, 20 to 24 h preincubation)
# Assay type: in vitro ADME
# Study Conditions: human, Caco-2, Caco-2
Positions of bridges follow the written chain, without caps; N, C: chain ends. Non-standard residues stand in square brackets, D forms with d. Residues, ends and D or L forms follow the SMILES beside them. *: point of attachment. hNle(7,7-F2) = N[C@@H](CCCCC(F)F)C(=O)O; NMeF = CN[C@@H](Cc1ccccc1)C(=O)O; NMeI = CC[C@H](C)[C@H](NC)C(=O)O; hPhe = N[C@@H](CCc1ccccc1)C(=O)O; NMeL = CN[C@@H](CC(C)C)C(=O)O; NMeV = CN[C@H](C(=O)O)C(C)C; NMeA = CN[C@@H](C)C(=O)O; Piperidide = C1CCN(*)CC1; CH2CMe2OH = CC(C)(O)C*; NPrGly = CCCNCC(=O)O; Sar = CNCC(=O)O
Entry rule: numbers only, all in nm/s.

Past entries and their recorded results:
CC[C@H](C)[C@H]1C(=O)N[C@@H]([C@@H](C)O)C(=O)N(C)CC(=O)N(C)[C@@H](CC(C)C)C(=O)N[C@H](C(=O)N2CCCCC2)CC(=O)N(C)[C@@H](C)C(=O)N[C@@H](CC(C)C)C(=O)N(C)[C@@H](CC(C)C)C(=O)N(C)[C@@H](C)C(=O)N[C@@H](COc2ccccc2Cl)C(=O)N(C)[C@@H](Cc2ccccc2)C(=O)N1C :: 14
CCCN1CC(=O)N(C)[C@@H](CC(C)C)C(=O)N[C@H](C(=O)N2CCCCC2)CC(=O)N(C)[C@@H](C)C(=O)N[C@@H](COCC(C)(C)O)C(=O)N(C)[C@@H](CC(C)C)C(=O)N(C)[C@@H](Cc2ccccc2)C(=O)N[C@@H](CC(C)C)C(=O)N(C)[C@@H](Cc2ccccc2)C(=O)N(C)[C@@H]([C@@H](C)CC)C(=O)N[C@@H]([C@@H](C)O)C1=O [pd428] ([NMeA]S(CH2CMe2OH)[NMeL][NMeF]L[NMeF][NMeI]T[NPrGly][NMeL]D-Piperidide; lactam N-11) :: 28
CC(C)C[C@H]1C(=O)N[C@@H](CCc2ccccc2)C(=O)N(C)[C@@H](Cc2ccccc2)C(=O)N(C)[C@@H](CC(C)C)C(=O)N[C@H](C(=O)N2CCCCC2)CC(=O)N[C@H](C(C)C)C(=O)N(C)[C@@H](C)C(=O)N[C@@H](C(C)C)C(=O)N(C)[C@@H](CC(C)C)C(=O)N[C@@H]([C@@H](C)O)C(=O)N(C)CC(=O)N1C [pd313] ([dV][NMeA]V[NMeL]T[Sar][NMeL][hPhe][NMeF][NMeL]D-Piperidide; lactam N-11) :: 25
CC(C)C[C@H]1C(=O)N[C@@H](COC(C)(C)C)C(=O)N(C)[C@@H](Cc2ccccc2)C(=O)N(C)[C@@H](C(C)C)C(=O)N[C@H](C(=O)N2CCCCC2)CC(=O)N[C@H](C)C(=O)N(C)[C@@H](Cc2ccccc2)C(=O)NC(COc2cccc(Cl)c2)C(=O)N(C)[C@@H](C(C)C)C(=O)N[C@@H]([C@@H](C)O)C(=O)N(C)CC(=O)N1C (some centres unmarked) :: 22

Moving on to another compound below.
Give the reported Papp A→B at 180 min for this compound. CC(C)C[C@@H]1NC(=O)[C@H](Cc2ccccc2)N(C)C(=O)[C@@H](C(C)C)NC(=O)C[C@@H](C(=O)N2CCCCC2)NC(=O)[C@H](C(C)C)N(C)C(=O)[C@H](Cc2ccccc2)N(C)C(=O)[C@H](CCCCC(F)F)NC(=O)[C@H](CC(C)C)N(C)C(=O)CN(C)C(=O)[C@H]([C@@H](C)O)NC(=O)[C@H](CC(C)C)N(C)C1=O [pd332] ([dV][NMeF]L[NMeL]T[Sar][NMeL][hNle(7,7-F2)][NMeF][NMeV]D-Piperidide; lactam N-11)
15
